- measured on: Gal(b1-3)Gal
- test: glycan array binding signal (z-score within array); higher = stronger binding
- condition: glycan notation: IUPAC condensed, linker removed
The sample as a whole holds a higher share of the strongest signals than the screen did.
I'd be grateful if you could share measured glycan array binding signal (z-score) for these entries.
Answers are plain numbers.

Reference set (5 entries):
INSERT INTO assay_data (binder, quantitative_readout) VALUES
  ('Microvirin-2 (Microcystis aeruginosa) (protein) MPNFSHTCSSINYDPDSTILSAECQARDGEWLPTELRLSDHIGNIDGELQFGDQNFQETCQDCHLEFGDGEQSVWLVCTCQTMDGEWKSTQILLDSQIDNNDSQLEIGGSMPNFSHTCSSINYDPDSTILSAECQARDGEWLPTELRLSDHIGNIDGELQFGDQNFQETCQDCHLEFGDGEQSVWLVCTCQTMDGEWKSTQILLDSQIDNNDSQLEIG', -0.144),
  ('CFEM-PPm (Pichia pastoris), F2QPV1 (protein) AVATPPACLLACAAEVVKESSDCDALNNIQCICENEGSAIHACLESTCPDGLSSTALQSFEDVCE', 5.41),
  ('FBG3 (Homo sapiens), Q9H4M3 (protein) MAVGNINELPENILLELFTHVPARQLLLNCRLVCSLWRDLIDLVTLWKRKCLREGFITEDWDQPVADWKIFYFLRSLHRNLLHNPCAEEGFEFWSLDVNGGDEWKVEDLSRDQRKEFPNDQVKKYFVTSYYTCLKSQVVDLKAEGYWEELMDTTRPDIEVKDWFAARPDCGSKYQLCVQLLSSAHAPLGTFQPDPATIQQKSDAKWREVSHTFSNYPPGVRYIWFQHGGVDTHYWAGWYGPRVTNSSITIGPPLP', -0.052),
  ('Si Bti9 1b-V5-his (Solanum lycopersicum) (protein) MQCNRGCDLALASFYVWRGSNLTLISEMFSTSIADIVSYNNRDNIPNQDSVIAGTRINIPFRCDCLNDGEVLGHAFPYRVKSGDTYDLVARNYSDLTTAQWMMKFNSYPENNIPNTVNLSVVVNCSCGNSDVSKDFGLFVTYPVRAEDNLTSVASAANVSEDIIRRYNPAAVSILDIGQGIIYIPGRDRNGNFPPLPTSTDGLSGGAKKGGRADPAFLYKVVINSKLEGKPIPNPLLGLDSTRTGHHHHHH', -0.313),
  ('Crocus Lectin (Crocus vernus), Q9FVA1 (protein) MAKSLVLSSLLLALLLAAPLASLADNNVLLTGDVLHTDNQLSFESAAFVMQGDCNLVLYNEAGGFQSNTHGRGVGCTLRLNNFGQLEIHSANSNTPVWVSLRNGIPVRGDYAAVLGPDQHVTIYGPAIWSTPAPNRHERGATVSNIPRVRNVLFSSQVMSDNAQLATRDYSLVMRDDCNLALTKGSKTNIVWESGTSGRGQHCFMRLGHTGLIEISDDRLNTVWRSNTVGQEGDYVLILQINGQAVVYGPAVWSTASPARGGASAAL', -0.192);

Now for the binder whose glycan array binding signal (z-score) we want.
Read off the recorded glycan array binding signal (z-score) for Dectin2 (Homo sapiens), Q6EIG7 (protein) MMQEQQPQSTEKRGWLSLRLWSVAGISIALLSACFIVSCVVTYHFTYGETGKRLSELHSYHSSLTCFSEGTKVPAWGCCPASWKSFGSSCYFISSEEKVWSKSEQNCVEMGAHLVVFNTEAEQNFIVQQLNESFSYFLGLSDPQGNNNWQWIDKTPYEKNVRFWHLGEPNHSAEQCASIVFWKPTGWGWNDVICETRRNSICEMNKIYL
-0.111
